Target: GST-hRIPK1 (8-327) (Homo sapiens (Human), UniProt Q13546)
Sequence (Q13546 8-327): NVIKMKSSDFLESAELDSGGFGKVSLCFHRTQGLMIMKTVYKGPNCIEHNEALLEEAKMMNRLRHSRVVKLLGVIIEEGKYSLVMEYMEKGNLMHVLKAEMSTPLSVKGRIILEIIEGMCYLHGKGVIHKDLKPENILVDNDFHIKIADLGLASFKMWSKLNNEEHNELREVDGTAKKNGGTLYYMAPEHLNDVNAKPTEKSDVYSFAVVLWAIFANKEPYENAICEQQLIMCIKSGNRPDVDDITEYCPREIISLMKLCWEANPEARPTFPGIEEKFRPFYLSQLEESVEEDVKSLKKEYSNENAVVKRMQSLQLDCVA
Assay: Fluorescent Polarization Binding (FP Binding) assay, RIPK1
Conditions: 10 nM GST-hRIPK1 (8-327), 5 nM fluorescent-labeled ligand, RT, 30 min, mean of at least two independent experiments
We begin with a simple list: items and their reported IC50.

compound	IC50
CC(C)(C(=O)N1CCOc2c(cnc(Cl)c2C#N)C1)C(F)F	0.1 to 1 µM
CC(C)(C(=O)N1CCOc2c(C#N)cncc2C1)C1CN(c2ncc(F)cn2)C1	0.1 to 1 µM
CCC1(C(=O)N2CCOc3c(C#N)cncc3C2)CCN(c2ncc(F)cn2)CC1	0.1 to 1 µM
COC1(C(=O)N2CCOc3c(C#N)cncc3C2)CCN(c2ccc(F)cn2)CC1	0.1 to 1 µM
N#Cc1cncc2c1OCCN(C(=O)C1(F)CCN(c3ncc(C4CC4)cn3)CC1)C2	0.1 to 1 µM
N#Cc1cncc2c1OCCN(C(=O)C1(C(F)(F)F)CC1)C2	0.1 to 1 µM
CC(C)(C(=O)N1CCOc2c(C#N)cncc2C1)C1CC1C(F)F (stereo not shown)	0.1 to 1 µM
COc1ccnc(N2CCC(F)(C(=O)N3CCOc4c(C#N)cncc4C3)CC2)n1	0.0001 to 0.1 µM
CC(C(=O)N1CCOc2c(F)cccc2C1)C(F)(F)F (stereo not shown)	> 1 µM
COc1nc(N2CCC(C(=O)N3Cc4cncc(C#N)c4OC[C@H]3C)CC2)ncc1F	0.0001 to 0.1 µM
CC(C)(CC#N)C(=O)N1CCOc2c(C#N)cncc2C1	0.1 to 1 µM
O=C(C1CC(F)(F)C1)N1CCOc2ccccc2C1	> 1 µM
N#Cc1cncc2c1OCCN(C(=O)C1(C(F)(F)F)CCC1)C2	0.1 to 1 µM
CC(C)(C(=O)N1CCOc2c(F)cncc2C1)C(F)F	0.1 to 1 µM
CC(C)COC(=O)N1CCC(F)(C(=O)N2CCOc3c(C#N)cncc3C2)CC1	> 1 µM
CC(C)(C(=O)N1CCOc2c(C#N)cncc2C1)C(F)(F)F	0.0001 to 0.1 µM
CC(C)(C(=O)N1CCOc2c(C#N)cncc2C1)C1(O)CC1	> 1 µM
N#Cc1cncc2c1OCCN(C(=O)C1(F)CCN(c3ccnc(C(F)(F)F)n3)CC1)C2	0.1 to 1 µM
COc1nc(N2CCC(C(=O)N3CCOc4c(C#N)cncc4C3)CC2)ncc1Cl	0.0001 to 0.1 µM

====

Target: GST-hRIPK1 (8-327) (Homo sapiens (Human), UniProt Q13546)
Experiment: Fluorescent Polarization Binding (FP Binding) assay, RIPK1
Details: GST-hRIPK1 (8-327), mean of at least two independent experiments
IC50 listing for selected compounds.

compound	IC50
O=C(C1CCN(c2ccnc3ccnn23)C[C@@H]1F)N1CCOc2c(F)cncc2C1 (some centres unmarked)	0.1 to 100 nM
N#Cc1cncc2c1OCCN(C(=O)C1CCN(c3nccc4ncnn34)CC1(F)F)C2 (centres unmarked)	100 to 1000 nM
N#Cc1cncc2c1OCCN(C(=O)C1(F)CCN(c3ccc4ccccc4n3)CC1)C2	0.1 to 100 nM
CCC(C)(CC#N)C(=O)N1CCOc2c(C#N)cncc2C1 (single isomer, unassigned) [Example 264]	0.1 to 100 nM
N#Cc1cncc2c1OCCN(C(=O)C1=CCN(c3ncc(F)cn3)CC1)C2	100 to 1000 nM
O=C(C1CCN(c2nccn3ncnc23)C[C@@H]1F)N1CCOc2c(F)cncc2C1 (some centres unmarked)	100 to 1000 nM
N#Cc1cncc2c1OCCN(C(=O)C1(F)CCN(c3nccn4ncnc34)CC1)C2	0.1 to 100 nM
COC1(C(=O)N2CCOc3c(C#N)cncc3C2)CCN(c2ncccn2)CC1	0.1 to 100 nM

====

Overview of reported IC50 across a group of compounds:
Molecular target: GST-hRIPK1 (8-327) (Homo sapiens (Human))
Assay: Fluorescent Polarization Binding (FP Binding) assay, RIPK1
Settings: 10 nM GST-hRIPK1 (8-327), 5 nM fluorescent-labeled ligand, RT, 30 min, mean of at least two independent experiments

compound	system name	IC50
N#Cc1cncc2c1OCCN(C(=O)C1(C(F)F)CCC1)C2	GST-hRIPK1 (8-327) (Homo sapiens (Human))	0.1 to 100 nM
CC(C)(C(=O)N1Cc2ccccc2CCO1)C(F)F	GST-hRIPK1 (8-327) (Homo sapiens (Human))	> 1000 nM
CC1(C(=O)N2CCOc3c(C#N)cccc3C2)CCN(c2ncc(F)cn2)CC1	GST-hRIPK1 (8-327) (Homo sapiens (Human))	0.1 to 100 nM
CC(F)(F)C(C)(C)C(=O)N1CCOc2c(C#N)cncc2C1	GST-hRIPK1 (8-327) (Homo sapiens (Human))	0.1 to 100 nM
N#Cc1cncc2c1OCCN(C(=O)C1(C#N)CCN(c3ncc(F)cn3)CC1)C2	GST-hRIPK1 (8-327) (Homo sapiens (Human))	100 to 1000 nM
CC(C)(C(=O)N1CCOc2ccc(F)cc2C1)C(F)F	GST-hRIPK1 (8-327) (Homo sapiens (Human))	0.1 to 100 nM
N#Cc1cncc2c1OCCN(C(=O)C1(F)CCN(c3cnccn3)CC1)C2	GST-hRIPK1 (8-327) (Homo sapiens (Human))	100 to 1000 nM
N#Cc1cncc2c1OCCN(C(=O)C1(F)CCN(c3ncc4c(n3)CCC4)CC1)C2	GST-hRIPK1 (8-327) (Homo sapiens (Human))	100 to 1000 nM
Cc1ccnc(N2CCC(F)(C(=O)N3CCOc4c(C#N)cncc4C3)CC2)n1	GST-hRIPK1 (8-327) (Homo sapiens (Human))	100 to 1000 nM
N#Cc1cncc2c1OCCN(C(=O)C1(F)CCN(c3ccnc4nccn34)CC1)C2	GST-hRIPK1 (8-327) (Homo sapiens (Human))	100 to 1000 nM
CC(C(=O)N1CCOc2c(C#N)cncc2C1)(C(F)F)C1CC1 (stereo not shown)	GST-hRIPK1 (8-327) (Homo sapiens (Human))	0.1 to 100 nM
CN(C)CCCOc1nc(N2CCC(F)(C(=O)N3CCOc4c(C#N)cncc4C3)CC2)ncc1F	GST-hRIPK1 (8-327) (Homo sapiens (Human))	100 to 1000 nM
COC(C)(C(=O)N1CCOc2c(C#N)cncc2C1)C1CC1 (stereo not shown)	GST-hRIPK1 (8-327) (Homo sapiens (Human))	100 to 1000 nM
CC(C)(C(=O)N1CCOc2cc(C(F)(F)F)ncc2C1)C(F)F	GST-hRIPK1 (8-327) (Homo sapiens (Human))	> 1000 nM
N#Cc1ccnc(N2CCC(F)(C(=O)N3CCOc4c(F)cncc4C3)CC2)n1	GST-hRIPK1 (8-327) (Homo sapiens (Human))	100 to 1000 nM
CC(C)(C(=O)N1CCOc2c(C#N)cccc2C1)C(F)F	GST-hRIPK1 (8-327) (Homo sapiens (Human))	0.1 to 100 nM
CC(C)(C(=O)N1CCOc2cc(F)ccc2C1)C(F)F	GST-hRIPK1 (8-327) (Homo sapiens (Human))	100 to 1000 nM
CCC(C)(C)C(=O)N1CCOc2c(C#N)cncc2C1	GST-hRIPK1 (8-327) (Homo sapiens (Human))	0.1 to 100 nM
N#Cc1cncc2c1OCCN(C(=O)C1(F)CCN(c3nccc(C(F)(F)F)n3)CC1)C2	GST-hRIPK1 (8-327) (Homo sapiens (Human))	100 to 1000 nM

====

Target: GST-hRIPK1 (8-327) (Homo sapiens (Human), UniProt Q13546)
Assay: Fluorescent Polarization Binding (FP Binding) assay, RIPK1
Details: 10 nM GST-hRIPK1 (8-327), 5 nM fluorescent-labeled ligand, RT, 30 min, mean of at least two independent experiments
pIC50: −log10 of the molar value.
Below: a set of entries, each annotated with reported pIC50.
measured quantity: pIC50

molecule	system name	result
N#Cc1cncc2c1OCCN(C(=O)C13CCN(c4ncc(F)cn4)CC1C3(F)F)C2 (stereo not shown) [Example 99]	GST-hRIPK1 (8-327) (Homo sapiens (Human), UniProt Q13546)	6.00 to 7.00
COc1nc(N2CCC(F)(C(=O)N3CCOc4c(C#N)cncc4C3)CC2)ncc1Cl [Example 128]	GST-hRIPK1 (8-327) (Homo sapiens (Human), UniProt Q13546)	7.00 to 10.00
CCC(C)(C(=O)N1CCOc2c(C#N)cncc2C1)C(F)(F)F (stereo not shown) [Example 67]	GST-hRIPK1 (8-327) (Homo sapiens (Human), UniProt Q13546)	7.00 to 10.00
N#Cc1cncc2c1OCCN(C(=O)C1(F)CCN(c3ncc(OC(F)F)cn3)CC1)C2 [Example 102]	GST-hRIPK1 (8-327) (Homo sapiens (Human), UniProt Q13546)	6.00 to 7.00
